# Measured on: ATG4B (Homo sapiens, UniProt Q9Y4P1)
# Construct: 6xHis
# Sequence (Q9Y4P1 whole entry): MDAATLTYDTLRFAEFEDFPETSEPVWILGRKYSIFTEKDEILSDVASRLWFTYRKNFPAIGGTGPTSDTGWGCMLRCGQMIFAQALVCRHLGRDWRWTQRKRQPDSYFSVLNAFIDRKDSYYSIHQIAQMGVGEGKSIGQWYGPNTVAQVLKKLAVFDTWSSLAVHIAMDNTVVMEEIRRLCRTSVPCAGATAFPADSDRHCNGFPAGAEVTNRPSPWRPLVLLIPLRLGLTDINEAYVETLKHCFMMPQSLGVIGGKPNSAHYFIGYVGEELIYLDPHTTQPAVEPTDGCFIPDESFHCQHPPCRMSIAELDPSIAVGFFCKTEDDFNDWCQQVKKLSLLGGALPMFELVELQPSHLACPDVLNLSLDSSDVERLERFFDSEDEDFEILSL
# Procedure summary: FRET-based assay for ATG4B activity
# Conditions: recombinant ATG4B 0.75 μg/ml, 30 min preincubation at 37 °C
Measured quantity: IC50
Write the numeric value and append its unit.

Recorded IC50 (compound O=c1c2ccccc2[se]n1-c1ccccc1 ): 189 nM
